Recorded body weights values for a group of substances are listed next.
- Test description: Body and organ weights of cynomolgus monkeys (Example 45)
- Format: in vivo
- Reported conditions: day 1; escalating dose regimen
Supply the numeric figure in g, leaving out any unit text.

Recorded results for 4 substances are shown here.
Task: Fill in body weights for record ISIS 416838: MOE gapmer, nucleobases 1018 to 1042 of SEQ ID NO: 1 (Table 6) (antisense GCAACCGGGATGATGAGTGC; MOE gapmer, wing and gap sizes not given here)
Result: 2720

Task: Fill in body weights for record ISIS 417002: MOE gapmer, nucleobases 1275 to 1318 of SEQ ID NO: 1 (Table 8) (antisense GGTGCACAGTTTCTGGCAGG; MOE gapmer, wing and gap sizes not given here)
Result: 2640

Task: Fill in body weights for record ISIS 416858: MOE gapmer, nucleobases 1275 to 1318 of SEQ ID NO: 1 (Table 8) (antisense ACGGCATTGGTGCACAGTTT; MOE gapmer, wing and gap sizes not given here)
Result: 2912

Task: Fill in body weights for record ISIS 416850: MOE gapmer, nucleobases 1275 to 1318 of SEQ ID NO: 1 (Table 8) (antisense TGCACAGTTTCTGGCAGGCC; MOE gapmer, wing and gap sizes not given here)
Result: 2572

Below: the item to evaluate.
Task: Fill in body weights for record ISIS 416864: MOE gapmer, nucleobases 1275 to 1318 of SEQ ID NO: 1 (Table 8) (antisense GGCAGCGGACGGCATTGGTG; MOE gapmer, wing and gap sizes not given here)
Result: 2890

----------
- Test description: Hematology assays in cynomolgus monkeys (Example 46)
- Format: in vivo
- Reported conditions: Day 31
Strand notation (5' to 3'): a small letter for the sugar, then the base; units joined by * are phosphorothioate-linked, units joined directly phosphodiester-linked; [ ] holds rarer units or linkages, { } end groups; capitals alone tell only the bases. e = 2'-O-(2-methoxyethyl) (MOE); [5mC] = 5-methylcytosine; d = 2'-deoxy (DNA)
Measure: monocytes
Answer format: number, then unit.

Task: Fill in monocytes for record ISIS 445531: 5-8-5 or 6-8-6 MOE microwalk gapmer (Table 44) (antisense eG*eG*e[5mC]*eA*eT*dT*dG*dG*dT*dG*d[5mC]*dA*d[5mC]*eA*eG*eT*eT*eT)
Result: 4.1%

Task: Fill in monocytes for record ISIS 445522: 5-8-5 or 6-8-6 MOE microwalk gapmer (Table 44) (antisense eG*e[5mC]*eA*e[5mC]*eA*dG*dT*dT*dT*d[5mC]*dT*dG*dG*e[5mC]*eA*eG*eG*e[5mC])
Result: 3.9%

Task: Fill in monocytes for record ISIS 449707: 3-8-3, 4-8-4, 2-10-2, 3-10-3 or 4-10-4 MOE microwalk gapmer (Table 46) (antisense e[5mC]*eA*e[5mC]*eA*dG*dT*dT*dT*d[5mC]*dT*dG*dG*e[5mC]*eA*eG*eG)
Result: 4.2%

Task: Fill in monocytes for record ISIS 416858: MOE gapmer, nucleobases 1275 to 1318 of SEQ ID NO: 1 (Table 8) (antisense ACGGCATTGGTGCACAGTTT; MOE gapmer, wing and gap sizes not given here)
Result: 4.7%

Below: the item to evaluate.
Task: Fill in monocytes for record ISIS 449708: 3-8-3, 4-8-4, 2-10-2, 3-10-3 or 4-10-4 MOE microwalk gapmer (Table 46) (antisense eA*e[5mC]*eA*dG*dT*dT*dT*d[5mC]*dT*dG*dG*e[5mC]*eA*eG)
Result: 5.8%

----------
- Test description: Liver function, ALT, AST, bilirubin in cynomolgus monkeys (Example 46)
- Assay type: in vivo
- Reported conditions: Day −14; plasma
Strand notation (5' to 3'): a small letter for the sugar, then the base; units joined by * are phosphorothioate-linked, units joined directly phosphodiester-linked; [ ] holds rarer units or linkages, { } end groups; capitals alone tell only the bases. e = 2'-O-(2-methoxyethyl) (MOE); [5mC] = 5-methylcytosine; d = 2'-deoxy (DNA)
Measure: AST (IU/L)
Supply the numeric figure in IU/L, leaving out any unit text.

Task: Fill in AST for record ISIS 445522: 5-8-5 or 6-8-6 MOE microwalk gapmer (Table 44) (antisense eG*e[5mC]*eA*e[5mC]*eA*dG*dT*dT*dT*d[5mC]*dT*dG*dG*e[5mC]*eA*eG*eG*e[5mC])
Result: 62

Task: Fill in AST for record ISIS 449708: 3-8-3, 4-8-4, 2-10-2, 3-10-3 or 4-10-4 MOE microwalk gapmer (Table 46) (antisense eA*e[5mC]*eA*dG*dT*dT*dT*d[5mC]*dT*dG*dG*e[5mC]*eA*eG)
Result: 74

Task: Fill in AST for record ISIS 416858: MOE gapmer, nucleobases 1275 to 1318 of SEQ ID NO: 1 (Table 8) (antisense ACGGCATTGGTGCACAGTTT; MOE gapmer, wing and gap sizes not given here)
Result: 64

Task: Fill in AST for record ISIS 449709: 3-8-3, 4-8-4, 2-10-2, 3-10-3 or 4-10-4 MOE microwalk gapmer (Table 46) (antisense eG*e[5mC]*eA*e[5mC]*dA*dG*dT*dT*dT*d[5mC]*dT*dG*dG*d[5mC]*eA*eG*eG*e[5mC])
Result: 62

Task: Fill in AST for record ISIS 416850: MOE gapmer, nucleobases 1275 to 1318 of SEQ ID NO: 1 (Table 8) (antisense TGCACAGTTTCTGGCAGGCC; MOE gapmer, wing and gap sizes not given here)
Result: 62

Task: Fill in AST for record ISIS 445531: 5-8-5 or 6-8-6 MOE microwalk gapmer (Table 44) (antisense eG*eG*e[5mC]*eA*eT*dT*dG*dG*dT*dG*d[5mC]*dA*d[5mC]*eA*eG*eT*eT*eT)
Result: 78

Below: the item to evaluate.
Task: Fill in AST for record ISIS 449707: 3-8-3, 4-8-4, 2-10-2, 3-10-3 or 4-10-4 MOE microwalk gapmer (Table 46) (antisense e[5mC]*eA*e[5mC]*eA*dG*dT*dT*dT*d[5mC]*dT*dG*dG*e[5mC]*eA*eG*eG)
Result: 64

----------
- Test system: human Factor 11 mRNA
- Test description: Dose-dependent inhibition of human Factor 11 in cyano primary hepatocytes, electroporation (Example 6)
- Type: cell-based
- Reported conditions: 60 nM, ~16 hours
Recorded percent inhibition of human Factor 11 mRNA relative to untreated control cells values for a group of substances are listed next.
Supply the numeric figure in %, leaving out any unit text.

Task: Fill in percent inhibition of human Factor 11 mRNA relative to untreated control cells for record 417002 (antisense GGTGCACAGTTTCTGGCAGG; 2-13-5 gapmer chemistry, further chemistry not given here) [compound 417002]
Result: 55

Task: Fill in percent inhibition of human Factor 11 mRNA relative to untreated control cells for record 416864 (antisense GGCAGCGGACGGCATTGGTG; 5-10-5 gapmer, further chemistry not given here) [compound 416864]
Result: 47

Task: Fill in percent inhibition of human Factor 11 mRNA relative to untreated control cells for record 416892 (antisense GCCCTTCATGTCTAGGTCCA; 3-14-3 chimeric gapmer, further chemistry not given here) [compound 416892]
Result: 88

Task: Fill in percent inhibition of human Factor 11 mRNA relative to untreated control cells for record 416999 (antisense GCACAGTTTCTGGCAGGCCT; 2-13-5 gapmer chemistry, further chemistry not given here) [compound 416999]
Result: 67

Below: the item to evaluate.
Task: Fill in percent inhibition of human Factor 11 mRNA relative to untreated control cells for record 416858 (antisense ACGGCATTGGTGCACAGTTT; 5-10-5 gapmer, further chemistry not given here) [compound 416858]
Result: 63

----------
- Tested on: blood coagulation
- Test description: PT and aPTT assay in cynomolgus monkeys (Example 46)
- Assay type: in vivo
- Reported conditions: Day 24; platelet poor plasma; relative to PBS group
Strand notation (5' to 3'): a small letter for the sugar, then the base; units joined by * are phosphorothioate-linked, units joined directly phosphodiester-linked; [ ] holds rarer units or linkages, { } end groups; capitals alone tell only the bases. e = 2'-O-(2-methoxyethyl) (MOE); [5mC] = 5-methylcytosine; d = 2'-deoxy (DNA)
Measure: PT ratio (INR)
Answer with a bare number; do not write a unit.

Task: Fill in PT ratio (INR) for record ISIS 449707: 3-8-3, 4-8-4, 2-10-2, 3-10-3 or 4-10-4 MOE microwalk gapmer (Table 46) (antisense e[5mC]*eA*e[5mC]*eA*dG*dT*dT*dT*d[5mC]*dT*dG*dG*e[5mC]*eA*eG*eG)
Result: 0.95

Task: Fill in PT ratio (INR) for record ISIS 416858: MOE gapmer, nucleobases 1275 to 1318 of SEQ ID NO: 1 (Table 8) (antisense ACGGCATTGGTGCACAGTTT; MOE gapmer, wing and gap sizes not given here)
Result: 0.95

Task: Fill in PT ratio (INR) for record ISIS 416850: MOE gapmer, nucleobases 1275 to 1318 of SEQ ID NO: 1 (Table 8) (antisense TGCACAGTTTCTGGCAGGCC; MOE gapmer, wing and gap sizes not given here)
Result: 0.97

Task: Fill in PT ratio (INR) for record ISIS 449708: 3-8-3, 4-8-4, 2-10-2, 3-10-3 or 4-10-4 MOE microwalk gapmer (Table 46) (antisense eA*e[5mC]*eA*dG*dT*dT*dT*d[5mC]*dT*dG*dG*e[5mC]*eA*eG)
Result: 0.95
